Biological target: human IL-17A (human, UniProt Q16552 24-155)
Sequence (Q16552 24-155 limits assumed): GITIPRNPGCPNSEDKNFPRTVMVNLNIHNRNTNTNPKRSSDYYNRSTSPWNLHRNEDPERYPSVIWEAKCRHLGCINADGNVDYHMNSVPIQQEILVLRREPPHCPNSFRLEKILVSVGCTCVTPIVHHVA
Test: cell-based or functional assay
observed-property: Potency (pM), IL-17-driven IL-6 production in HS27 cells
Give a bare numeral; the unit pM is implied.

IL17-G9-3 (antibody, V domains shown) VH: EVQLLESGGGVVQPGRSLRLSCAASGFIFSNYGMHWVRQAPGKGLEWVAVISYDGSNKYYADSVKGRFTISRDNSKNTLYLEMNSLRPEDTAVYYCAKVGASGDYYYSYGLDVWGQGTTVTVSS VL: QSVLTQPPSASGTPGQTVSISCSGRNSNIGSHYVHWYQQVPGAAPKLLMYDFGLRPSGVPDRFSVSQSGTSASLAISGLQSEDEADYYCATWDDMLGGYVFGTGTKVTVLG = 334
IL17-G9-4 (antibody, V domains shown, no own VH entry is printed) VH: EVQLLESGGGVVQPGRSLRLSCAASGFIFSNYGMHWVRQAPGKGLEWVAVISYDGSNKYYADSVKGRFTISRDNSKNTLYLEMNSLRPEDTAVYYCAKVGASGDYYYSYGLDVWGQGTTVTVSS VL: QSVLTQPPSASGTPGQTVSISCSGRQSNIGRHYVDWYQQVPGAAPKLLMYYDSIRPSGVPDRFSGSQSGTSASLAISGLQSEDEADYYCATWDDSLGGYVFGSGTKVTVLG = 38

Now let's try a different one.
Given the entry IL17-B6-17 (antibody, V domains shown, also called pJP249 B6.1 #17VH / pJP252 B6.1 #17Vk) VH: EVQLVQSGAEVKKPGSSVKVSCKASGGSFGGYGIGWVRQAPGQGLEWMGGITPFFGFADYAQKFQGRVTITADESTTTAYMELSGLTSDDTAVYYCARDPNEFWNGYYSTHDFDSWGQGTTVTVSS VL: EIVLTQSPDFQSVTPKEKVTITCRASQDIGSELHWYQQKPDQPPKLLIKYASHSTSGVPSRFSGSGSGTDFTLTINGLEAEDAGTYYCHQTDSLPYTFGPGTKVDIK , report its measured Potency (pM), IL-17-driven IL-6 production in HS27 cells. 15
